- Test system: Klebsiella pneumoniae
- test: Potentiation of rifampicin-mediated antibacterial activity against Klebsiella pneumoniae ATCC 13883 assessed as decrease in rifampicin MIC at 2 ug/ml by checkerboard method relative to control
- Format: functional
Non-standard residues stand in square brackets, D forms with d. Residues, ends and D or L forms follow the SMILES beside them. *: point of attachment. Dab = NCC[C@H](N)C(=O)O; Hexanoyl = CCCCCC(=O)*; Bz = O=C(c1ccccc1)*
Listed compounds paired with reported fold change (FC)

compound: CCCCCCCC(=O)N[C@H](CCCN)C(=O)N[C@H](C(=O)N[C@@H](CCCN)C(=O)N[C@@H](Cc1ccccc1)C(=O)N[C@@H](CC(C)C)C(=O)N[C@@H](CCCN)C(=O)N[C@H](C(=O)N[C@@H](CC(C)C)C(=O)N[C@@H](CO)C(N)=O)C(C)C)[C@@H](C)CC
fold change (FC): 1024 - 2048
--
compound: CC[C@H](C)[C@H](NC(=O)[C@H](CCN)NC(=O)c1ccccc1)C(=O)N[C@@H](CCN)C(=O)N[C@H](Cc1ccccc1)C(=O)N[C@@H](CC(C)C)C(=O)N[C@@H](CCN)C(=O)N[C@@H](C(=O)N[C@@H](CC(C)C)C(=O)N[C@@H](CO)C(N)=O)C(C)C (Bz-[Dab]I[Dab][dF]L[Dab][dV]LS-NH2)
fold change (FC): 4096 - 8192
--
compound: CCCCCC(=O)N[C@@H](CCN)C(=O)N[C@H](C(=O)N[C@@H](CCN)C(=O)N[C@H](Cc1ccccc1)C(=O)N[C@@H](CC(C)C)C(=O)N[C@@H](CCN)C(=O)N[C@@H](C(=O)N[C@@H](CC(C)C)C(=O)N[C@@H](CO)C(N)=O)C(C)C)[C@@H](C)CC (Hexanoyl-[Dab]I[Dab][dF]L[Dab][dV]LS-NH2)
fold change (FC): 8192

* * *

- System: Klebsiella pneumoniae
- test: Potentiation of rifampicin-mediated antibacterial activity against Klebsiella pneumoniae ATCC 13883 assessed as rifampicin MIC at 2 ug/ml by checkerboard method (reference value: 16 ug/ml)
- Format: functional
Non-standard residues stand in square brackets, D forms with d. Residues, ends and D or L forms follow the SMILES beside them. *: point of attachment. Cha = N[C@@H](CC1CCCCC1)C(=O)O; Decanoyl = CCCCCCCCCC(=O)*; Heptanoyl = CCCCCCC(=O)*; Dab = NCC[C@H](N)C(=O)O; Cbz = O=C(OCc1ccccc1)*; Hexanoyl = CCCCCC(=O)*
Listed molecules paired with reported MIC
measurementType: MIC (ng/mL)

molecule: CCCCCCC(=O)N[C@@H](CCN)C(=O)N[C@H](C(=O)N[C@@H](CCN)C(=O)N[C@H](Cc1ccccc1)C(=O)N[C@@H](CC(C)C)C(=O)N[C@@H](CCN)C(=O)N[C@@H](C(=O)N[C@@H](CC(C)C)C(=O)N[C@@H](CO)C(N)=O)C(C)C)C(C)C (Heptanoyl-[Dab]V[Dab][dF]L[Dab][dV]LS-NH2)
readoutRelation: =
resultNumber: 15.6
--
molecule: CC[C@H](C)[C@H](NC(=O)[C@H](CCN)NC(=O)[C@@H](N)CC1CCCCC1)C(=O)N[C@@H](CCN)C(=O)N[C@H](Cc1ccccc1)C(=O)N[C@@H](CC(C)C)C(=O)N[C@@H](CCN)C(=O)N[C@@H](C(=O)N[C@@H](CC(C)C)C(=O)N[C@@H](CO)C(N)=O)C(C)C (H-[Cha][Dab]I[Dab][dF]L[Dab][dV]LS-NH2)
readoutRelation: =
resultNumber: 3.9
--
molecule: CCCCCCCCCC(=O)N[C@@H](CCN)C(=O)N[C@H](C(=O)N[C@H](C(=O)N[C@H](CC(C)C)C(=O)N[C@@H](CC(C)C)C(=O)N[C@@H](CCN)C(=O)N[C@@H](C(=O)N[C@@H](CC(C)C)C(=O)N[C@@H](CO)C(N)=O)C(C)C)[C@@H](C)O)[C@@H](C)CC (Decanoyl-[Dab]IT[dL]L[Dab][dV]LS-NH2)
readoutRelation: >
resultNumber: 125
--
molecule: CCCCCC(=O)N[C@@H](CCN)C(=O)N[C@H](C(=O)N[C@@H](CCN)C(=O)N[C@H](Cc1ccccc1)C(=O)N[C@@H](CC(C)C)C(=O)N[C@@H](CCN)C(=O)N[C@@H](C(=O)N[C@@H](CC(C)C)C(=O)N[C@@H](CO)C(N)=O)C(C)C)[C@@H](C)CC (Hexanoyl-[Dab]I[Dab][dF]L[Dab][dV]LS-NH2)
readoutRelation: =
resultNumber: 3.9
--
molecule: CC[C@H](C)[C@H](NC(=O)[C@H](CCN)NC(=O)OCc1ccccc1)C(=O)N[C@@H](CCN)C(=O)N[C@H](Cc1ccccc1)C(=O)N[C@@H](CC(C)C)C(=O)N[C@@H](CCN)C(=O)N[C@@H](C(=O)N[C@@H](CC(C)C)C(=O)N[C@@H](CO)C(N)=O)C(C)C (Cbz-[Dab]I[Dab][dF]L[Dab][dV]LS-NH2)
readoutRelation: =
resultNumber: 3.9
--
molecule: CCCCCCC(=O)N[C@@H](CCN)C(=O)N[C@H](C(=O)N[C@@H](CCN)C(=O)N[C@H](Cc1ccccc1)C(=O)N[C@@H](CC(C)C)C(=O)N[C@@H](CCN)C(=O)N[C@@H](C(=O)N[C@@H](CC(C)C)C(=O)N[C@@H](CO)C(N)=O)C(C)C)[C@@H](C)CC (Heptanoyl-[Dab]I[Dab][dF]L[Dab][dV]LS-NH2)
readoutRelation: =
resultNumber: 3.9

* * *

Listed compounds paired with reported MIC
- Tested on: Escherichia coli
- test: Antibacterial activity against Escherichia coli ATCC 25922 in presence of 100% serum measured immediately post compound addition in serum by broth microdilution method
- Type: functional
Non-standard residues stand in square brackets, D forms with d. Residues, ends and D or L forms follow the SMILES beside them. *: point of attachment. Cha = N[C@@H](CC1CCCCC1)C(=O)O; Octanoyl = CCCCCCCC(=O)*; Dab = NCC[C@H](N)C(=O)O
measurementType: MIC

compound: CC[C@H](C)[C@H](NC(=O)[C@H](CCN)NC(=O)[C@@H](N)CC1CCCCC1)C(=O)N[C@@H](CCN)C(=O)N[C@H](Cc1ccccc1)C(=O)N[C@@H](CC(C)C)C(=O)N[C@@H](CCN)C(=O)N[C@@H](C(=O)N[C@@H](CC(C)C)C(=O)N[C@@H](CO)C(N)=O)C(C)C (H-[Cha][Dab]I[Dab][dF]L[Dab][dV]LS-NH2)
result: 1 to 2 µg/mL

compound: CCCCCCCC(=O)N[C@@H](CCN)C(=O)N[C@H](C(=O)N[C@@H](CCN)C(=O)N[C@H](Cc1ccccc1)C(=O)N[C@@H](CC(C)C)C(=O)N[C@@H](CCN)C(=O)N[C@@H](C(=O)N[C@@H](CC(C)C)C(=O)N[C@@H](CO)C(N)=O)C(C)C)[C@@H](C)CC (Octanoyl-[Dab]I[Dab][dF]L[Dab][dV]LS-NH2)
result: 8 µg/mL

compound: CCCCCCCC(=O)N[C@@H](CCN)C(=O)N[C@H](C(=O)N[C@@H](CCN)C(=O)N[C@H](Cc1ccccc1)C(=O)N[C@@H](CC(C)C)C(=O)N[C@@H](CCN)C(=O)N[C@@H](C(=O)N[C@@H](CC(C)C)C(=O)N[C@@H](CCN)C(N)=O)C(C)C)[C@@H](C)CC (Octanoyl-[Dab]I[Dab][dF]L[Dab][dV]L[Dab]-NH2)
result: 1 to 2 µg/mL

compound: CC(C)C[C@H](NC(=O)[C@@H](Cc1ccccc1)NC(=O)[C@H](CCN)NC(=O)[C@H](Cc1ccccc1)NC(=O)[C@H](CCN)NC(=O)[C@@H](N)CC1CCCCC1)C(=O)N[C@@H](CCN)C(=O)N[C@H](CC(C)C)C(=O)N[C@@H](Cc1ccccc1)C(=O)N[C@@H](CO)C(N)=O (H-[Cha][Dab]F[Dab][dF]L[Dab][dL]FS-NH2)
result: 4 to 8 µg/mL

* * *

- Test system: Escherichia coli
- test: Antibacterial activity against Escherichia coli ATCC 25922 in presence of 100% serum after 6 hrs by broth microdilution method
- Type: functional
- measurementSetup: ATCC 25922, 6 h
Non-standard residues stand in square brackets, D forms with d. Residues, ends and D or L forms follow the SMILES beside them. Cha = N[C@@H](CC1CCCCC1)C(=O)O; Dab = NCC[C@H](N)C(=O)O

compound: CC[C@H](C)[C@H](NC(=O)[C@H](CCN)NC(=O)[C@@H](N)CC1CCCCC1)C(=O)N[C@@H](CCN)C(=O)N[C@H](Cc1ccccc1)C(=O)N[C@@H](CC(C)C)C(=O)N[C@@H](CCN)C(=O)N[C@@H](C(=O)N[C@@H](CC(C)C)C(=O)N[C@@H](CO)C(N)=O)C(C)C (H-[Cha][Dab]I[Dab][dF]L[Dab][dV]LS-NH2)
MIC: > 32 µg/mL

All figures here come from ChEMBL document CHEMBL4052819.
